- target_under_test: HLA-B*07:02
- assay_remarks: IEDB peptide-MHC binding, purified MHC/direct/fluorescence; filed as Kd, often an IC50 or EC50 that approximates it; bounds were set here for any values at or beyond the usual limits of such assays
- applied_conditions: source organism: Pseudomonas aeruginosa
measurement_kind: pKd
As a rule, pKd stands for the negative log10 of the concentration, concentration in M.

Value of measured pKd for the entry SPADERAVA : 7.38

###

- target_under_test: HLA-B*07:02
- assay_remarks: IEDB peptide-MHC binding, purified MHC/direct/fluorescence; filed as Kd, often an IC50 or EC50 that approximates it; bounds were set here for any values at or beyond the usual limits of such assays
- applied_conditions: source organism: Influenza A virus (A/Hong Kong/514/97(H5N1))
measurement_kind: Kd

Value of measured Kd for the entry VSDGGPNLY : ≥ 20 µM
